Each entry below carries its reported inhibition at 0.1 µM.
- subjectOfTest: SRC (Homo sapiens, UniProt P12931)
- Construct: purchased Invitrogen
- Sequence (P12931 whole entry): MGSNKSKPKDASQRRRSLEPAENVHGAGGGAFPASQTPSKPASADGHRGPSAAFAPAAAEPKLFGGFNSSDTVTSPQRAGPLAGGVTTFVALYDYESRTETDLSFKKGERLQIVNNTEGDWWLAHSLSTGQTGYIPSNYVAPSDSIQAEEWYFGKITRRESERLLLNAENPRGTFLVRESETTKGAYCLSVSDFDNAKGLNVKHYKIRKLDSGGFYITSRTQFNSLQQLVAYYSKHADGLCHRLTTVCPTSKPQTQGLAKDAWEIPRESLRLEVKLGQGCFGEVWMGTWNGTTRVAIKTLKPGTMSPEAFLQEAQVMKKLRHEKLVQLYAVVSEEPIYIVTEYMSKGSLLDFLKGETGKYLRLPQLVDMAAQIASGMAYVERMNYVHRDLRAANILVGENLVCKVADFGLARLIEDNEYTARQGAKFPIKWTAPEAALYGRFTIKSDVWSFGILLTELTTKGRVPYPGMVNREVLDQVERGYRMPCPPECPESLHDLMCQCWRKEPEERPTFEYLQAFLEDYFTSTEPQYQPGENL
- measurementProtocol: In vitro kinase assay (Z'-LYTE), SRC
- Format: biochemical
- measurementContext: read-out: % of inhibition of the kinase compared to the control

{"columns": ["compound", "result"],
 "data": [
  ["Cc1ccc(NC(=O)c2ccc(CN3CCC(N(C)C)C3)c(C(F)(F)F)c2)cc1CNc1cnc2[nH]c(C(=O)O)cc2c1 (centres unmarked) [OR0528]", "≥ 50%"],
  ["CNC(=O)c1cc2cc(NCc3cc(NC(=O)c4ccc(CN5CCC(N(C)C)C5)c(C(F)(F)F)c4)ccc3C)cnc2[nH]1 (centres unmarked) [OR0752]", "≥ 50%"],
  ["CC(=O)c1cc2cc(NCc3cc(NC(=O)C4CC4)ccc3C)cnc2[nH]1 [OR0929]", "< 50%"]
]}

input: Look at this compound and give its reported inhibition at 0.1 µM. CC(=O)c1cc2cc(NCc3cc(NC(=O)c4cncc(C(F)(F)F)c4)ccc3C)cnc2[nH]1 [OR0721]
output: ≥ 50%

input: Consider the compound CC(=O)c1cc2cc(NCc3cc(NC(=O)Cc4cccc(C(F)(F)F)c4)ccc3C)cnc2[nH]1 [OR0968] and give its measured inhibition at 0.1 µM.
output: < 50%

input: What inhibition at 0.1 µM value was documented for this compound, CC(=O)c1cc2cc(NC(=O)c3cc(NC(=O)c4ccc(CN5CCC(N(C)C)C5)c(C(F)(F)F)c4)ccc3C)cnc2[nH]1 (centres unmarked) [OR0782] ?
output: ≥ 50%

input: Param item = CC(=O)c1cc2cc(NC(=O)c3cc(NC(=O)c4ccc(CN5CCN(C)CC5)cc4)ccc3C)cnc2[nH]1 [OR0780] ; retrieve measured inhibition at 0.1 µM.
output: < 50%

input: Looking for the measured inhibition at 0.1 µM of CC(=O)c1cc2cc(NCc3cc(NC(=O)c4ccncn4)ccc3C)cnc2[nH]1 [OR0988] , can you help?
output: < 50%

----------
Measured inhibition at 0.1 µM by item
- subjectOfTest: FGFR2 (Homo sapiens, UniProt P21802)
- Construct: purchased Invitrogen
- Sequence (P21802 22-821): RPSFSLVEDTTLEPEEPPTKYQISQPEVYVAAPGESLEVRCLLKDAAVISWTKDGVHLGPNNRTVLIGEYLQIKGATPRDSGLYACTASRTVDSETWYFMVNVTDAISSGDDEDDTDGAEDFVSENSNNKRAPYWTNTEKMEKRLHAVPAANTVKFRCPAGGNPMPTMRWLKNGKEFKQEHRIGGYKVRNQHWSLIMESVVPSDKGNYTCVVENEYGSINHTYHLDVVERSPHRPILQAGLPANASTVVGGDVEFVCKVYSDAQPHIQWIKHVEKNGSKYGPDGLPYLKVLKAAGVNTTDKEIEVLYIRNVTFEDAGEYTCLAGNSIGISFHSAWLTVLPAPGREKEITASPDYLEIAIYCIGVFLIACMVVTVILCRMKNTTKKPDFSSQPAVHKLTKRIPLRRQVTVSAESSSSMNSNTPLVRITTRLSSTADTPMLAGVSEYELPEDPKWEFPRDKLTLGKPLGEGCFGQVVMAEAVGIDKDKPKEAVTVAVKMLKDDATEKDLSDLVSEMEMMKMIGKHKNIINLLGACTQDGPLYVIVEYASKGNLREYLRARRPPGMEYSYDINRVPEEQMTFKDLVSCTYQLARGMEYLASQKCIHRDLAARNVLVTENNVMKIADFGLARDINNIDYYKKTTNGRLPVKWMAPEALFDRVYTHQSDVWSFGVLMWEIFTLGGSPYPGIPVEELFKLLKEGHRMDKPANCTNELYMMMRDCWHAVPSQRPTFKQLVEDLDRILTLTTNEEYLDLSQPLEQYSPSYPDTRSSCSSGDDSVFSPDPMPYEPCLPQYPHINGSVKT
- measurementProtocol: In vitro kinase assay (Z'-LYTE), FGFR2
- Assay type: biochemical
- measurementContext: read-out: % of inhibition of the kinase compared to the control

{"columns": ["compound", "measurementLabel", "result"],
 "data": [
  ["Cc1ccc(NC(=O)c2cncc(C(F)(F)F)c2)cc1C(=S)Nc1cnc2[nH]c(C(=O)O)cc2c1 [OR1053]", "inhibition at 0.1 µM", "< 50%"],
  ["CC(=O)c1cc2cc(NC(=O)c3cc(NC(=O)c4ccc(CN5CCC(N(C)C)C5)c(C(F)(F)F)c4)ccc3C)cnc2[nH]1 (stereo not shown) [OR0782]", "inhibition at 0.1 µM", "≥ 50%"],
  ["CC(=O)c1cc2cc(NCc3cc(NC(=O)C4CC4)ccc3C)cnc2[nH]1 [OR0929]", "inhibition at 0.1 µM", "< 50%"]
]}

input: Reported inhibition at 0.1 µM for Cc1ccc(NC(=O)c2ccc(CN3CCN(C)CC3)cc2)cc1CNc1cnc2[nH]c(C(=O)O)cc2c1 [OR0692] : what is it?
output: < 50%

----------
- subjectOfTest: EGFR (ErbB1) (Homo sapiens, UniProt P00533)
- Construct: purchased Invitrogen
- Sequence (P00533 25-1210): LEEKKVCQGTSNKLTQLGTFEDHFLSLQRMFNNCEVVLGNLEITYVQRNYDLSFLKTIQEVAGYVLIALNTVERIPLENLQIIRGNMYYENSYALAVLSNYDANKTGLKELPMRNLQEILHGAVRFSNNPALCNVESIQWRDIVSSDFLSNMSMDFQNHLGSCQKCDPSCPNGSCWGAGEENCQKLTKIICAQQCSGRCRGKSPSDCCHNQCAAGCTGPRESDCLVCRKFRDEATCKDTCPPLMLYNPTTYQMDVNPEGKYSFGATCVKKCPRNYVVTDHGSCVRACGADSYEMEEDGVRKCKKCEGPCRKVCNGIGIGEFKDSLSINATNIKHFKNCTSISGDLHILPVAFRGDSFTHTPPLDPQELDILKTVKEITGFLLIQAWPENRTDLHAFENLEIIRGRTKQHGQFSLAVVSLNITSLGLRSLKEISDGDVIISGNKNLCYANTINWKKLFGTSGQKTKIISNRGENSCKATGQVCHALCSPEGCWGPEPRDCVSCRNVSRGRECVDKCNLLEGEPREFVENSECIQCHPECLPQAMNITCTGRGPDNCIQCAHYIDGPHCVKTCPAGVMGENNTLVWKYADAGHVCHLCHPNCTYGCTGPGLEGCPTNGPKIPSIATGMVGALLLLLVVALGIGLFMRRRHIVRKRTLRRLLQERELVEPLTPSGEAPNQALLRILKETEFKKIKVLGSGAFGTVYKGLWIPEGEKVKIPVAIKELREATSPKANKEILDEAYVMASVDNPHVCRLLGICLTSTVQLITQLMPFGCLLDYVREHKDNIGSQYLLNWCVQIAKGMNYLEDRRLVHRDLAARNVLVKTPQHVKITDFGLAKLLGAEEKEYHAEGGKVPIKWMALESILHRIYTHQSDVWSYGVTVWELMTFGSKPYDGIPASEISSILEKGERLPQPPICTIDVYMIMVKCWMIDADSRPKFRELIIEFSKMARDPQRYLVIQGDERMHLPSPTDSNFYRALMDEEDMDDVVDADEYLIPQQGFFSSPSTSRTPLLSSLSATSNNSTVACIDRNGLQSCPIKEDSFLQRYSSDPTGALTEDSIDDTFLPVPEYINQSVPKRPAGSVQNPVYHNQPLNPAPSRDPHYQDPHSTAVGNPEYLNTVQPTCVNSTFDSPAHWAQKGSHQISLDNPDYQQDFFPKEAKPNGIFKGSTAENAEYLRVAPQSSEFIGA
- measurementProtocol: In vitro kinase assay (Z'-LYTE), EGFR (ErbB1)
- Format: biochemical
- measurementContext: read-out: % of inhibition of the kinase compared to the control
Below, each of the compounds is paired with its reported inhibition at 0.1 µM value.

# example entries with known answers
{"columns": ["compound", "subjectOfTest", "result"],
 "data": [
  ["CC(=O)c1cc2cc(NCc3cc(NC(=O)c4ccn[nH]4)ccc3C)cnc2[nH]1 [OR0987]", "EGFR (ErbB1) (Homo sapiens, UniProt P00533)", "< 50%"],
  ["CC(=O)c1cc2cc(NCc3cc(NC(=O)c4ccc(CN5CCC(N(C)C)C5)c(F)c4)ccc3C)cnc2[nH]1 (stereo not drawn) [OR0973]", "EGFR (ErbB1) (Homo sapiens, UniProt P00533)", "≥ 50%"],
  ["CC(=O)c1cc2cc(NCc3cc(NC(=O)C4CC4)ccc3C)cnc2[nH]1 [OR0929]", "EGFR (ErbB1) (Homo sapiens, UniProt P00533)", "< 50%"],
  ["CNC(=O)c1cc2cc(NCc3cc(NC(=O)c4ccc(CN5CCN(C)CC5)c(C(F)(F)F)c4)ccc3C)cnc2[nH]1 [OR0751]", "EGFR (ErbB1) (Homo sapiens, UniProt P00533)", "≥ 50%"],
  ["CC(=O)c1cc2cc(NCc3cc(NC(=S)Nc4cccc(C(F)(F)F)c4)ccc3C)cnc2[nH]1 [OR1015]", "EGFR (ErbB1) (Homo sapiens, UniProt P00533)", "< 50%"],
  ["CC(=O)c1cc2cc(NCc3ccc(F)c(NC(=O)c4cncc(C(F)(F)F)c4)c3)cnc2[nH]1 [OR0894]", "EGFR (ErbB1) (Homo sapiens, UniProt P00533)", "< 50%"],
  ["Cc1ccc(NC(=O)c2cncc(C(F)(F)F)c2)cc1C(=S)Nc1cnc2[nH]c(C(=O)O)cc2c1 [OR1053]", "EGFR (ErbB1) (Homo sapiens, UniProt P00533)", "≥ 50%"],
  ["CC(=O)c1cc2cc(NC(=O)c3cc(NC(=O)Nc4cccc(C(F)(F)F)c4)ccc3C)cnc2[nH]1 [OR0951]", "EGFR (ErbB1) (Homo sapiens, UniProt P00533)", "< 50%"]
]}

Continue with the next compound.
input: Which inhibition at 0.1 µM is reported with EGFR (ErbB1) (Homo sapiens, UniProt P00533) for this entry: CC(=O)c1cc2cc(NC(=O)c3cccc(CNC(=S)c4cccc(C(F)(F)F)c4)c3)cnc2[nH]1 [OR1012] ?
output: < 50%

These data points were gathered from patent US9403823B2.
